TARGET SYSTEM: GDP-bound KRAS protein (aa 1-169), containing both G12C and C118A amino acid substitutions (Homo sapiens (Human), UniProt P01116, C118A/G12C)
Sequence (P01116 other isoform, or with tags, fused parts or gaps G12C/C118A): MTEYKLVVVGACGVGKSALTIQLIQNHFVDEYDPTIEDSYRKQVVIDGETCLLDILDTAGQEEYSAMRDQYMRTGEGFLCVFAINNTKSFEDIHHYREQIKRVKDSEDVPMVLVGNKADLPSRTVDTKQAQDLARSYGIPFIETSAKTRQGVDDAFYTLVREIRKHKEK
PROTOCOL NOTES: Coupled Nucleotide Exchange Assay
Assay type: biochemical
ASSAY CONDITIONS: read-out: Coupled Exchange IC50 (5 min); 5 min compound pre-incubation
Hi! Could you tag entries with IC50 below 5 µM as YES, and those at or above as NO? Much appreciated.

# MOLECULE, CATEGORY LABEL
data = [
    ("C=CC(=O)N1CC(NC(=O)Cn2c(C)c(-c3ccccc3CC)c3cc(Cl)ccc32)C1 [Example 54]", "YES"),
    ("C=CC(=O)N1CC(NC(=O)Cn2c(C)c(-c3ccccc3-c3ccccc3)c3cc(Cl)ccc32)C1 [Example 67]", "YES"),
    ("C=CC(=O)N1CC(NC(=O)Cn2cc(-c3ccccc3-c3ccccc3)c3cc(Cl)ccc32)C1 [Example 112]", "YES"),
    ("C=CC(=O)N1CC(N2CCC(n3cc(I)c4cc(Cl)ccc43)C2=O)C1 (stereo not drawn) [Example 90]", "NO"),
    ("C=CC(=O)N1CC(NC(=O)Cn2c(C)c(-c3ccccc3Cc3ccccc3)c3cc(Cl)ccc32)C1 [Example 56]", "YES"),
    ("C=CC(=O)N1CC(NC(=O)Cn2cc(I)c3cc([N+](=O)[O-])ccc32)C1 [Example 128]", "NO"),
    ("C=CC(=O)N1CC(NC(=O)Cn2cc(-c3ccccc3C)c3cc(Cl)ccc32)C1 [Example 78]", "NO"),
    ("C=CC(=O)N1CC(NC(=O)Cn2c(C)c(-c3ccccc3CN(C)C)c3cc(Cl)ccc32)C1 [Example 32]", "NO"),
    ("C=CC(=O)N1CC(N(C)C(=O)Cn2cc(I)c3cc(I)ccc32)C1 [Example 66]", "NO"),
    ("C=CC(=O)N1CC(NC(=O)Cn2cc(I)c3cc(Br)ccc32)C1 [Example 85]", "NO"),
    ("C=CC(=O)N1CC(NC(=O)Cn2cc(Br)c3cc([N+](=O)[O-])ccc32)C1 [Example 233]", "NO"),
    ("C=CC(=O)N1CC(NC(=O)Cn2cc(I)c3cc(Cl)ccc32)C1 [Example 139]", "NO"),
    ("C=CC(=O)N1CC(NC(=O)Cn2cc(I)c3ccccc32)C1 [Example 212]", "NO"),
    ("C=CC(=O)N1CC(NC(=O)Cn2c(C3CC3)c(C(=O)N3CCc4c(ccnc4OC)C3)c3cc(Cl)cc(C)c32)C1 [Example 1-4]", "YES"),
    ("C=CC(=O)N1CC(NC(=O)Cn2cc(C)c3cc(Br)ccc32)C1 [Example 194]", "NO"),
]
